Below, each entry is listed with its recorded TGI.
# Test system: M14 melanoma
# assayName: NCI tumour cell line growth inhibition, 48 h
measuredProperty: TGI

compound=Cc1c(CCCl)c(N=P(c2ccccc2)(c2ccccc2)c2ccccc2)n2c(nc3ccccc32)c1C#N subjectoftest="M14 melanoma" measvalue="> 10 µM"
compound="C=CC1CN(C(=O)OCC)N(C(=O)OCC)C1CCc1ccccc1 (stereo not drawn)" subjectoftest="M14 melanoma" measvalue="> 100 µM"
compound=O=C(c1ccc(Cl)cc1)c1ccc(OCCCOc2ccc(C(=O)c3ccc(Cl)cc3)cc2Cl)c(Cl)c1 subjectoftest="M14 melanoma" measvalue="> 100 µM"

###

# System: OVCAR-5 ovarian
# assayName: NCI tumour cell line growth inhibition, 48 h
A collection of compounds and their measured TGI
measuredProperty: TGI

compound=COc1cc(C(=O)c2cnc(-c3cccc4[nH]ccc34)[nH]2)cc(OC)c1OC measvalue="> 100 µM"
compound="CC(C)C1NC(=O)CC(c2ccccc2)N(N=O)C1c1ccccc1 (stereo unspecified)" measvalue="> 100 µM"
compound="NC1=NN(c2ccccc2)C(=O)C1C(=O)C(=O)Nc1ccc(Cl)c(Cl)c1 (stereo unspecified)" measvalue="> 100 µM"
compound=Cc1nc2c(o1)C(=Nc1ccccc1)c1nc(C)oc1C2=Nc1ccccc1 measvalue="92.4 µM"
compound=CC(=O)OCC(=O)OC[C@H](OCc1ccccc1)[C@@H]1[C@H](OC(C)=O)C(=O)N1Cc1ccccc1 measvalue="> 100 µM"
compound=CC(=O)[CH-]C(=O)c1ccccc1.CC(=O)[CH-]C(=O)c1ccccc1.O=S(=O)([O-])c1cc([O-])c2c([O-])cc(S(=O)(=O)[O-])cc2c1.[Na+].[Zr+4] measvalue="> 100 µM"
